Assay: log P by HPLC
Format: physicochemical
Settings: HPLC, gradient method, acetonitrile/0.1% aqueous phosphoric acid; EEC directive 79/831 Annex V. A8
Measure name: logP

{"Molecule": "CC1C=CC(C)N1c1c(-c2c(F)cc(F)cc2F)c(Cl)nc2nc(C3CC3)nn12 (centres unmarked)", "Measure name": "logP", "Result": 4.17}
{"Molecule": "Cc1nc2nc(Cl)c(-c3c(F)cccc3F)c(NOCc3ccc(Cl)cc3)n2n1", "Measure name": "logP", "Result": 3.23}
{"Molecule": "Fc1ccc(-c2c(Cl)nc3nc(C(F)(F)F)nn3c2NCC2CC2)c(F)c1", "Measure name": "logP", "Result": 3.8}
{"Molecule": "CC(=O)NC1CCN(c2c(-c3ccc(F)cc3F)c(Cl)nc3nc(C4CC4)nn23)C1 (centres unmarked)", "Measure name": "logP", "Result": 2.17}
{"Molecule": "Cc1nc2nc(Cl)c(-c3c(F)cccc3F)c(NC3CCCC(C(F)(F)F)C3)n2n1 (centres unmarked)", "Measure name": "logP", "Result": 3.37}
{"Molecule": "Cc1nc2nc(Cl)c(-c3c(F)cccc3F)c(NOCc3cccc(Cl)c3)n2n1", "Measure name": "logP", "Result": 3.21}
{"Molecule": "CCCN(Cc1cccs1)c1c(-c2c(F)cccc2F)c(Cl)nc2nc(C)nn12", "Measure name": "logP", "Result": 3.96}
{"Molecule": "Cc1nc2nc(Cl)c(-c3c(F)cccc3F)c(N3CCCCO3)n2n1", "Measure name": "logP", "Result": 2.84}

###

Assay: log P by HPLC
Format: physicochemical
Details: HPLC, gradient method, acetonitrile/0.1% aqueous phosphoric acid; EEC directive 79/831 Annex V. A8
// boundary case: logP equal to 4 maps to false (0); strictly smaller maps to true (1)

{"Molecule": "CCC(C)Nc1c(-c2ccc(F)cc2F)c(Cl)nc2nc(C3CC3)nn12 (centres unmarked)", "Class name": "true (1)"}
{"Molecule": "CCN(CCC#N)c1c(-c2ccc(F)cc2F)c(Cl)nc2nc(C3CC3)nn12", "Class name": "true (1)"}
{"Molecule": "OC1CCN(c2c(-c3ccc(F)cc3F)c(Cl)nc3nc(C(F)(F)F)nn23)C1 (centres unmarked)", "Class name": "true (1)"}
{"Molecule": "C=C(C)CN(CC)c1c(-c2ccc(Cl)cc2Cl)c(Cl)nc2nc(C3CC3)nn12", "Class name": "false (0)"}
{"Molecule": "Cc1nc2nc(Cl)c(-c3ccc(F)cc3F)c(NCCC(F)(F)F)n2n1", "Class name": "true (1)"}
{"Molecule": "Cc1nc2nc(Cl)c(-c3ccc(Cl)cc3Cl)c(N3CCCCO3)n2n1", "Class name": "true (1)"}
{"Molecule": "Cc1nc2nc(Cl)c(-c3c(F)cc(F)cc3F)c(NCC(C)(C)C)n2n1", "Class name": "true (1)"}
{"Molecule": "C=CCN(CC)c1c(-c2ccc(F)cc2F)c(Cl)nc2nc(C(F)(F)F)nn12", "Class name": "false (0)"}

###

Assay: log P by HPLC
Format: physicochemical
Conditions: HPLC, gradient method, acetonitrile/0.1% aqueous phosphoric acid; EEC directive 79/831 Annex V. A8
Reported logP by item:
Measure name: logP

{"Compound": "CC1CCCN(c2c(-c3ccc(F)cc3F)c(Cl)nc3nc(C4CC4)nn23)C1 (centres unmarked)", "Result": 4.37}
{"Compound": "CCOC(=O)CN(C)c1c(-c2ccc(F)cc2F)c(Cl)nc2nc(C3CC3)nn12", "Result": 3.28}
{"Compound": "Cc1nc2nc(Cl)c(-c3c(F)cc(F)cc3F)c(NC(C)C(F)(F)F)n2n1 (centres unmarked) [compound 12]", "Result": 3.01}
{"Compound": "Cc1nc2nc(Cl)c(-c3c(F)cc(F)cc3F)c(N3CCCCO3)n2n1", "Result": 3.07}
{"Compound": "CN(C)c1c(-c2ccccc2Cl)c(Cl)nc2nc(C3CC3)nn12", "Result": 3.13}
{"Compound": "Fc1ccc(-c2c(Cl)nc3nc(C4CC4)nn3c2N2CCOCC2)c(Cl)c1", "Result": 3.18}
{"Compound": "CCCCN(CC)c1c(-c2c(F)cc(F)cc2F)c(Cl)nc2nc(C)nn12", "Result": 4.08}
{"Compound": "Fc1ccc(-c2c(Cl)nc3nc(C4CC4)nn3c2N2CCCCO2)c(Cl)c1", "Result": 3.87}
